# System name: Protein smoothened (Homo sapiens, UniProt Q99835, D473H)
# Sequence (Q99835 28-787 D473H limits assumed): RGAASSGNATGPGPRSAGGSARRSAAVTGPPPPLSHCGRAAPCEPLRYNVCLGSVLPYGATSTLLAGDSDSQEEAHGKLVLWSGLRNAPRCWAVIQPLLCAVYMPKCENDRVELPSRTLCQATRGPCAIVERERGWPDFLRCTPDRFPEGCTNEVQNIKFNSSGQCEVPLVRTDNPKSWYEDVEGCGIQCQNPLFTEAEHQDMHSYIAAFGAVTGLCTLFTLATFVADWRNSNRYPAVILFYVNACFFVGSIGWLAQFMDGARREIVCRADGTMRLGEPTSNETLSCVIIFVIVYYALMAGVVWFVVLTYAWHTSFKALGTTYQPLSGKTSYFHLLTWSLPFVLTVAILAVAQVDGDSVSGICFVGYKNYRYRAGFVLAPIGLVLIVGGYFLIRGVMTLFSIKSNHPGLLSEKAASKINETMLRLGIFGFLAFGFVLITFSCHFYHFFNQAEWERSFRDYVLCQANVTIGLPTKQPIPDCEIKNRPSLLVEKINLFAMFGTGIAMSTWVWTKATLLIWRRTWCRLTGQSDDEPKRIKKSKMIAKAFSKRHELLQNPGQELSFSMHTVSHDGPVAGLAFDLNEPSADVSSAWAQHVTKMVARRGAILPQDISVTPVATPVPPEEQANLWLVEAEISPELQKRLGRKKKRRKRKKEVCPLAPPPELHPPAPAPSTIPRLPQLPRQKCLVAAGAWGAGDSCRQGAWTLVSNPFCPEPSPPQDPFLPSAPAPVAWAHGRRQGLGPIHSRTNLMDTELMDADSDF
# Assay comment: Antagonist activity at SMO D473H mutant (unknown origin) expressed in mouse TM3 cells coexpressing Gli-luc reporter gene assessed as inhibition of Hh-Ag1.5 induced Gli luciferase activity incubated for 48 hrs by luminescence assay
Measured endpoint: pIC50
For clarity, pIC50 is expressed as the negative log10 of concentration in mol/L.

Q: Identify the reported pIC50 for the following entry. CC1C(=O)N(c2ccc(Cl)cc2)C(=O)N1Cc1ccccc1 (stereo unspecified)
Result: 7.30

---

# Assay comment: Inhibition of hedgehog signalling pathway in mouse NIH3T3 cells by Gli-Bla reporter assay
# Type: cell-based
Measured endpoint: pIC50
For clarity, pIC50 is expressed as the negative log10 of concentration in mol/L.

Q: Identify the reported pIC50 for the following entry. CS(=O)(=O)c1ccc(C(=O)Nc2ccc(Cl)c(-c3ccccn3)c2)c(Cl)c1 [VISMODEGIB]
Result: 8.15

Where do these numbers come from? They come from ChEMBL document CHEMBL5247632.
